reported-conditions: oral administration, 50 mg/kg, SD rats
# if measured AUCINF < 80 ng·h/mL: yes (1)  # else: no (0)

Strictly below 80 ng·h/mL: is that where AUCINF of CN1CC[C@]23c4c5ccc(O)c4O[C@H]2[C@@H](OCCOCCOCCOCCOCCOCCOCCOCCOCCO[C@H]2C=C[C@H]4[C@H]6Cc7ccc(O)c8c7[C@@]4(CCN6C)[C@H]2O8)C=C[C@H]3[C@H]1C5 sits?
yes (1)

Strictly below 80 ng·h/mL: is that where AUCINF of CN1CC[C@]23c4c5ccc(O)c4O[C@H]2[C@@H](OCCOCCO[C@H]2C=C[C@H]4[C@H]6Cc7ccc(O)c8c7[C@@]4(CCN6C)[C@H]2O8)C=C[C@H]3[C@H]1C5 sits?
yes (1)

Strictly below 80 ng·h/mL: is that where AUCINF of CN1CC[C@]23c4c5ccc(O)c4O[C@H]2[C@@H](OCCOCCOCCOCCOCCOCCO[C@H]2C=C[C@H]4[C@H]6Cc7ccc(O)c8c7[C@@]4(CCN6C)[C@H]2O8)C=C[C@H]3[C@H]1C5 sits?
no (0)

Strictly below 80 ng·h/mL: is that where AUCINF of CN1CC[C@]23c4c5ccc(O)c4O[C@H]2[C@@H](OCCOCCOCCOCCOCCOCCOCCOCCO[C@H]2C=C[C@H]4[C@H]6Cc7ccc(O)c8c7[C@@]4(CCN6C)[C@H]2O8)C=C[C@H]3[C@H]1C5 sits?
yes (1)

Strictly below 80 ng·h/mL: is that where AUCINF of CN1CC[C@]23c4c5ccc(O)c4O[C@H]2[C@@H](OCCOCCOCCOCCOCCO[C@H]2C=C[C@H]4[C@H]6Cc7ccc(O)c8c7[C@@]4(CCN6C)[C@H]2O8)C=C[C@H]3[C@H]1C5 sits?
no (0)

Continuing:
Strictly below 80 ng·h/mL: is that where AUCINF of CN1CC[C@]23c4c5ccc(O)c4O[C@H]2[C@@H](OCCOCCOCCO[C@H]2C=C[C@H]4[C@H]6Cc7ccc(O)c8c7[C@@]4(CCN6C)[C@H]2O8)C=C[C@H]3[C@H]1C5 sits?
yes (1)

Strictly below 80 ng·h/mL: is that where AUCINF of CN1CC[C@]23c4c5ccc(O)c4O[C@H]2[C@@H](OCCO[C@H]2C=C[C@H]4[C@H]6Cc7ccc(O)c8c7[C@@]4(CCN6C)[C@H]2O8)C=C[C@H]3[C@H]1C5 sits?
no (0)

====

Entries annotated with measured F
reported-conditions: oral 50 mg/kg versus intravenous 10 mg/kg, SD rats
Write down the numeric answer in % and omit the unit.

Worked cases, F given:
// query F value for entry CN1CC[C@]23c4c5ccc(O)c4O[C@H]2[C@@H](OCCOCCOCCOCCOCCOCCOCCOCCOCCO[C@H]2C=C[C@H]4[C@H]6Cc7ccc(O)c8c7[C@@]4(CCN6C)[C@H]2O8)C=C[C@H]3[C@H]1C5
5.2

// query F value for entry CN1CC[C@]23c4c5ccc(O)c4O[C@H]2[C@@H](OCCOCCOCCOCCOCCO[C@H]2C=C[C@H]4[C@H]6Cc7ccc(O)c8c7[C@@]4(CCN6C)[C@H]2O8)C=C[C@H]3[C@H]1C5
28.2

// query F value for entry CN1CC[C@]23c4c5ccc(O)c4O[C@H]2[C@@H](OCCO[C@H]2C=C[C@H]4[C@H]6Cc7ccc(O)c8c7[C@@]4(CCN6C)[C@H]2O8)C=C[C@H]3[C@H]1C5
3.7

Shift focus to the following entry.
// query F value for entry CN1CC[C@]23c4c5ccc(O)c4O[C@H]2[C@@H](OCCOCCOCCOCCO[C@H]2C=C[C@H]4[C@H]6Cc7ccc(O)c8c7[C@@]4(CCN6C)[C@H]2O8)C=C[C@H]3[C@H]1C5
17.1

====

assay-procedure: in vivo
reported-conditions: female, SD, rat, iv, 5 mg/kg
readout-label: tissue level at time at 10 min (ng/g)
Write down the numeric answer in ng/g and omit the unit.

// query tissue level at time at 10 min value for entry COc1ccc2c3c1O[C@H]1[C@@H](OCCOCCOCCOCCO[C@H]4C=C[C@H]5[C@H]6Cc7ccc(OC)c8c7[C@@]5(CCN6C)[C@H]4O8)C=C[C@H]4[C@@H](C2)N(C)CC[C@@]341
121

Shift focus to the following entry.
// query tissue level at time at 10 min value for entry COc1ccc2c3c1O[C@H]1[C@@H](OCCOCCOCCOCCOCCOCCO[C@H]4C=C[C@H]5[C@H]6Cc7ccc(OC)c8c7[C@@]5(CCN6C)[C@H]4O8)C=C[C@H]4[C@@H](C2)N(C)CC[C@@]341
102

====

assay-procedure: in vivo
reported-conditions: female, SD, rat, iv, 5 mg/kg
readout-label: tissue level at time at 3 h (ng/g)
Write down the numeric answer in ng/g and omit the unit.

Worked cases, tissue level at time at 3 h given:
// query tissue level at time at 3 h value for entry CN1CC[C@]23c4c5ccc(O)c4O[C@H]2[C@@H](OCCOCCOCCOCCOCCOCCO[C@H]2C=C[C@H]4[C@H]6Cc7ccc(O)c8c7[C@@]4(CCN6C)[C@H]2O8)C=C[C@H]3[C@H]1C5
111

// query tissue level at time at 3 h value for entry COc1ccc2c3c1O[C@H]1[C@@H](OCCOCCOCCOCCOCCOCCO[C@H]4C=C[C@H]5[C@H]6Cc7ccc(OC)c8c7[C@@]5(CCN6C)[C@H]4O8)C=C[C@H]4[C@@H](C2)N(C)CC[C@@]341
97

// query tissue level at time at 3 h value for entry COc1ccc2c3c1O[C@H]1[C@@H](OCCOCCOCCOCCO[C@H]4C=C[C@H]5[C@H]6Cc7ccc(OC)c8c7[C@@]5(CCN6C)[C@H]4O8)C=C[C@H]4[C@@H](C2)N(C)CC[C@@]341
107

// query tissue level at time at 3 h value for entry CN1CC[C@]23c4c5ccc(O)c4O[C@H]2[C@@H](OCCOCCOCCOCCOCCOCCOCCO[C@H]2C=C[C@H]4[C@H]6Cc7ccc(O)c8c7[C@@]4(CCN6C)[C@H]2O8)C=C[C@H]3[C@H]1C5
105

// query tissue level at time at 3 h value for entry CN1CC[C@]23c4c5ccc(O)c4O[C@H]2[C@@H](OCCOCCOCCOCCOCCO[C@H]2C=C[C@H]4[C@H]6Cc7ccc(O)c8c7[C@@]4(CCN6C)[C@H]2O8)C=C[C@H]3[C@H]1C5
95

// query tissue level at time at 3 h value for entry CN1CC[C@]23c4c5ccc(O)c4O[C@H]2[C@@H](OCCOCCOCCOCCO[C@H]2C=C[C@H]4[C@H]6Cc7ccc(O)c8c7[C@@]4(CCN6C)[C@H]2O8)C=C[C@H]3[C@H]1C5
164

// query tissue level at time at 3 h value for entry CN1CC[C@]23c4c5ccc(O)c4O[C@H]2[C@@H](OCCOCCOCCO[C@H]2C=C[C@H]4[C@H]6Cc7ccc(O)c8c7[C@@]4(CCN6C)[C@H]2O8)C=C[C@H]3[C@H]1C5
167

// query tissue level at time at 3 h value for entry CN1CC[C@]23c4c5ccc(O)c4O[C@H]2[C@@H](OCCOCCO[C@H]2C=C[C@H]4[C@H]6Cc7ccc(O)c8c7[C@@]4(CCN6C)[C@H]2O8)C=C[C@H]3[C@H]1C5
221

Continuing:
// query tissue level at time at 3 h value for entry CN1CC[C@]23c4c5ccc(O)c4O[C@H]2[C@@H](OCCO[C@H]2C=C[C@H]4[C@H]6Cc7ccc(O)c8c7[C@@]4(CCN6C)[C@H]2O8)C=C[C@H]3[C@H]1C5
183

// query tissue level at time at 3 h value for entry CN1CC[C@]23c4c5ccc(O)c4O[C@H]2[C@@H](OCCOCCOCCOCCOCCOCCOCCOCCO[C@H]2C=C[C@H]4[C@H]6Cc7ccc(O)c8c7[C@@]4(CCN6C)[C@H]2O8)C=C[C@H]3[C@H]1C5
127

// query tissue level at time at 3 h value for entry CN1CC[C@]23c4c5ccc(O)c4O[C@H]2[C@@H](OCCOCCOCCOCCOCCOCCOCCOCCOCCO[C@H]2C=C[C@H]4[C@H]6Cc7ccc(O)c8c7[C@@]4(CCN6C)[C@H]2O8)C=C[C@H]3[C@H]1C5
123

====

Entries annotated with measured T1/2
reported-conditions: oral administration, 50 mg/kg, SD rats
Write down the numeric answer in h and omit the unit.

// query T1/2 value for entry CN1CC[C@]23c4c5ccc(O)c4O[C@H]2[C@@H](OCCOCCOCCOCCOCCOCCOCCOCCOCCO[C@H]2C=C[C@H]4[C@H]6Cc7ccc(O)c8c7[C@@]4(CCN6C)[C@H]2O8)C=C[C@H]3[C@H]1C5 [α-6-O-PEG9-(morphine)2]
11.5

// query T1/2 value for entry CN1CC[C@]23c4c5ccc(O)c4O[C@H]2[C@@H](OCCOCCOCCOCCOCCOCCOCCOCCO[C@H]2C=C[C@H]4[C@H]6Cc7ccc(O)c8c7[C@@]4(CCN6C)[C@H]2O8)C=C[C@H]3[C@H]1C5 [α-6-O-PEG8-(morphine)2]
5.2

// query T1/2 value for entry CN1CC[C@]23c4c5ccc(O)c4O[C@H]2[C@@H](OCCOCCOCCO[C@H]2C=C[C@H]4[C@H]6Cc7ccc(O)c8c7[C@@]4(CCN6C)[C@H]2O8)C=C[C@H]3[C@H]1C5 [α-6-O-PEG3-(morphine)2]
5.1

Shift focus to the following entry.
// query T1/2 value for entry CN1CC[C@]23c4c5ccc(O)c4O[C@H]2[C@@H](OCCOCCOCCOCCO[C@H]2C=C[C@H]4[C@H]6Cc7ccc(O)c8c7[C@@]4(CCN6C)[C@H]2O8)C=C[C@H]3[C@H]1C5 [α-6-O-PEG4-(morphine)2]
6.4

Origin of measurements: patent EP3409295A1
